systemTested: human PR-B binding to flPRE (Homo sapiens, UniProt P06401)
Sequence (P06401 1-933): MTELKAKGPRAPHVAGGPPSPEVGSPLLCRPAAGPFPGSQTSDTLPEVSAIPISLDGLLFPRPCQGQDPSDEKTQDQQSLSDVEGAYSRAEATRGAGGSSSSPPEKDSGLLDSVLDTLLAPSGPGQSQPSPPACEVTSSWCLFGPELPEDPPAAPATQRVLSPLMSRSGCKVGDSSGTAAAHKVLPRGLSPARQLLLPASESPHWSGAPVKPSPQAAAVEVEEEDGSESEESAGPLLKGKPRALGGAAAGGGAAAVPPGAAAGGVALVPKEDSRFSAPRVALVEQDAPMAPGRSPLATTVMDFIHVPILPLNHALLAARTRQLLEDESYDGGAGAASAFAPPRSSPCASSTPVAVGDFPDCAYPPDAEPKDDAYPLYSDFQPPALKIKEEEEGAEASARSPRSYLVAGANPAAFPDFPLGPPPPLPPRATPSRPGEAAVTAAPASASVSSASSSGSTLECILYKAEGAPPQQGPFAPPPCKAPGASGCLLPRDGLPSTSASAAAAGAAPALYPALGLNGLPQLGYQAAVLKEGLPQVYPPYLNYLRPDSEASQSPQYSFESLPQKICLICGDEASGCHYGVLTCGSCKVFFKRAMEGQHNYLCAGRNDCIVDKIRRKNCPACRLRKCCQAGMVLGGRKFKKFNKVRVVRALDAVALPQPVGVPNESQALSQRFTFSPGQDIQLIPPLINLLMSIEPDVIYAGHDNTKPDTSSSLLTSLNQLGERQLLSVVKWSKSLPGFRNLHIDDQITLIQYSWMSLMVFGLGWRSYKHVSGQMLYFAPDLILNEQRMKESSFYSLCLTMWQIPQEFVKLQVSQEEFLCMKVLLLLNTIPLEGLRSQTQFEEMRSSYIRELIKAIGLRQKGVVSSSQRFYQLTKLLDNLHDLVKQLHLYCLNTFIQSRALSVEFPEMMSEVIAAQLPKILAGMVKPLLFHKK
readout: IC50 (µM)

Field: example entries. Status: answers known.
Given item CC(C)/C=N/Nc1ccc([N+](=O)[O-])cc1[N+](=O)[O-] [Compound 6122] , the value recorded as its IC50 is 5.3

Value of measured IC50 for the entry CNc1ccccc1O [Compound 3879] : 6.5

Per the record, CN(C)CCCn1c2c3ccccc3ccc2c2oc(=O)c3ccccc3c21 [Compound 638432] has IC50 of 7.4

Recorded result, Nc1c(S(=O)(=O)O)cc(Nc2ccc(S(=O)(=O)O)c(Nc3nc(Cl)nc(Cl)n3)c2)c2c1C(=O)c1ccccc1C2=O [Compound 9545] , IC50: 3.8

A: CCCN(C(C)=O)c1ccccc1 [Compound 4700]
B: CC1CCCCN1.CC1CCCCN1.[Cl][Cu][Cl] (stereo not drawn) [Compound 1826]
Which value of IC50 is numerically greater: that of A or that of B ? Refer to your chosen item by its label in the answer.
B
